Molecular target: Cannabinoid receptor (Mus musculus) (UniProt P47746+P47936)
Sequence (P47746 whole entry, looked up): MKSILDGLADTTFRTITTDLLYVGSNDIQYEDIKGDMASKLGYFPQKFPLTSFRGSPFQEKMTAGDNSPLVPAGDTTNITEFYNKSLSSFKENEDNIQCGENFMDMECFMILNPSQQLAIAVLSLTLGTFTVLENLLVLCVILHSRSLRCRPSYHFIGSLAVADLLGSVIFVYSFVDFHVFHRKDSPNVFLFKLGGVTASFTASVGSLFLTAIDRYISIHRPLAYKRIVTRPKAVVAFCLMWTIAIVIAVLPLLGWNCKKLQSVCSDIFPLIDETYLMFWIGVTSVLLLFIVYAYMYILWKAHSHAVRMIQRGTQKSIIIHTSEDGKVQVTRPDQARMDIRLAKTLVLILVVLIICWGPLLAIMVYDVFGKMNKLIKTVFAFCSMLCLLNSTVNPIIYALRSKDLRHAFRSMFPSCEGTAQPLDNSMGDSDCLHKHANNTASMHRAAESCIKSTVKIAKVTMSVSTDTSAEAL
Sequence (P47936 whole entry, looked up): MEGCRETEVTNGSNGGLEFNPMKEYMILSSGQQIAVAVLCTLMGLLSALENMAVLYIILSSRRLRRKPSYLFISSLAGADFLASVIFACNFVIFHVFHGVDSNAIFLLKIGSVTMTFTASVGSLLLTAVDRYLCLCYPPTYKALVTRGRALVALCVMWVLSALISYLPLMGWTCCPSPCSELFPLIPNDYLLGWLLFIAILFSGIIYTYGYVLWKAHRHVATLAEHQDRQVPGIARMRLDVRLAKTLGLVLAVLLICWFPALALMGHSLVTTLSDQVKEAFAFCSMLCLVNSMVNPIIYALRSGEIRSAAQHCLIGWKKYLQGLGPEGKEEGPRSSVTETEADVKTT
Experiment: Agonist activity at cannabinoid receptor in ICR mouse vas deferens assessed as inhibition of electrically induced contractions at 9 x 10^-7 M after 10 mins relative to control
Format: protein assay
metric-name: inhibition
The answer consists of two parts: a number and, after it, its unit.

1. O=C(c1ccccc1OCc1ccccc1)n1nc(OCCN2CCCC2)c2ccccc21 :: 7.7%
2. O=C(c1cccc2ccccc12)n1nc(OCCN2CCCCC2)c2ccccc21 :: 8.6%
3. O=C(Cc1ccc(Cl)cc1)n1nc(OCCCN2CCCCC2)c2ccccc21 :: 0.4%

Q: Which inhibition is listed for O=C(c1ccc2ccccc2c1)n1nc(OCCCN2CCCCC2)c2ccccc21 ?
A: 0.1%

Q: Which inhibition is listed for O=C(c1cccc(F)c1F)n1nc(OCCN2CCCC2)c2ccccc21 ?
A: 11%

Q: Which inhibition is listed for O=C(c1ccccc1OCc1ccccc1)n1nc(OCCCN2CCCCC2)c2ccccc21 ?
A: 6.4%

Q: Which inhibition is listed for O=C(c1cccc(Cl)c1Cl)n1nc(OCCN2CCCC2)c2ccccc21 ?
A: 17.3%

====

Biological target: Cannabinoid receptor (Mus musculus) (UniProt P47746+P47936)
Assay: Agonist activity at cannabinoid receptor in ICR mouse vas deferens assessed as inhibition of electrically induced contractions at 10^-7 M after 10 mins in presence of CB1 antagonist AM251 relative to control
Format: protein assay
Form field: inhibition (one value per entry).
The reply should contain only the number, in %.

Some compounds with known inhibition results, for comparison:
1) COc1ccc(CC(=O)n2nc(OCCN3CCCC3)c3ccccc32)cc1 :: -1.7
2) O=C(c1c(F)ccc(F)c1F)n1nc(OCCN2CCCCC2)c2ccccc21 :: -5.3

Q: Which inhibition is listed for COc1cc(C(=O)n2nc(OCCN3CCCC3)c3ccccc32)cc(OC)c1OC ?
A: -0.7

Q: Which inhibition is listed for O=C(c1ccccc1Cl)n1nc(OCCCN2CCCCC2)c2ccccc21 ?
A: -1.7

Q: Which inhibition is listed for O=C(Cc1ccc(Cl)cc1)n1nc(OCCCN2CCCCC2)c2ccccc21 ?
A: -5.5

====

Target: Cannabinoid receptor (Mus musculus) (UniProt P47746+P47936)
Assay: Agonist activity at cannabinoid receptor in ICR mouse vas deferens assessed as inhibition of electrically induced contractions at 3 x 10^-7 M after 10 mins relative to control
Type: protein assay
metric-name: inhibition
The answer consists of two parts: a number and, after it, its unit.

Some molecules with known inhibition results, for comparison:
1. O=C(c1cccc2ccccc12)n1nc(OCCCN2CCCC2)c2ccccc21 :: 0.5%
2. O=C(c1ccccc1Cl)n1nc(OCCN2CCCC2)c2ccccc21 :: 4.9%
3. O=C(c1cccc(Cl)c1F)n1nc(OCCCN2CCCCC2)c2ccccc21 :: 13.9%
4. O=C(c1c(F)ccc(F)c1F)n1nc(OCCN2CCCCC2)c2ccccc21 :: 9.2%
5. O=C(c1ccc2ccccc2c1)n1nc(OCCN2CCCCC2)c2ccccc21 :: -1.2%
6. O=C(c1cccc2ccccc12)n1nc(OCCN2CCCCC2)c2ccccc21 :: 1.4%
7. COc1ccc(CC(=O)n2nc(OCCCN3CCCCC3)c3ccccc32)cc1 :: -0.3%
8. O=C(c1cccc(Cl)c1Cl)n1nc(OCCN2CCCC2)c2ccccc21 :: 5.6%
9. COc1ccc(CC(=O)n2nc(OCCN3CCCC3)c3ccccc32)cc1 :: 7.9%
10. O=C(c1cccc(Cl)c1Cl)n1nc(OCCN2CCCCC2)c2ccccc21 :: 3.8%

Q: Which inhibition is listed for Cc1cc(C)c(C(=O)n2nc(OCCN3CCCCC3)c3ccccc32)c(C)c1 ?
A: 3.6%

Q: Which inhibition is listed for COc1cc(C(=O)n2nc(OCCN3CCCC3)c3ccccc32)cc(OC)c1OC ?
A: 7%

Q: Which inhibition is listed for O=C(c1ccc2ccccc2c1)n1nc(OCCCN2CCCCC2)c2ccccc21 ?
A: -1%

Q: Which inhibition is listed for O=C(c1cccc2ccccc12)n1nc(OCCCN2CCCCC2)c2ccccc21 ?
A: 3%

Q: Which inhibition is listed for COc1ccc(COc2nn(CCN(C(C)C)C(C)C)c3ccccc23)cc1 ?
A: 8.5%

Q: Which inhibition is listed for O=C(c1cccc(F)c1F)n1nc(OCCN2CCCC2)c2ccccc21 ?
A: 3.6%

Q: Which inhibition is listed for O=C(Cc1ccc(Cl)cc1)n1nc(OCCCN2CCCCC2)c2ccccc21 ?
A: -4.8%

Q: Which inhibition is listed for O=C(c1ccccc1OCc1ccccc1)n1nc(OCCN2CCCC2)c2ccccc21 ?
A: 3.7%

Q: Which inhibition is listed for O=C(c1cccc(Cl)c1Cl)n1nc(OCCCN2CCCCC2)c2ccccc21 ?
A: 6.2%

Q: Which inhibition is listed for Cc1c(C(=O)c2cccc3ccccc23)c2cccc3c2n1[C@H](CN1CCOCC1)CO3 ?
A: 32.7%

Q: Which inhibition is listed for O=C(c1ccccc1Cl)n1nc(OCCCN2CCCCC2)c2ccccc21 ?
A: 2.8%
